Tested on: MOLT-4 leukemia
Protocol Summary: NCI tumour cell line growth inhibition, 48 h
Property Label: TGI

mol=CSCCCNC(=O)c1csc(-c2csc(CCNC(=O)CNC(=O)OC(C)(C)C)n2)n1 observed_measurement="> 100 µM"
mol=COc1ccc2[nH]c(=O)cc(C)c2c1[N+](=O)[O-] observed_measurement="> 100 µM"
mol=Cc1c2cnccc2c(C)c2c1c1ccccc1n2CCCCCCCl observed_measurement="> 50 µM"
mol=COc1cc(Br)c(/C=N/N=C(\N)NO)cc1OC observed_measurement="> 100 µM"
mol=CC1=CC2=C(C=O)C(=O)[C@](C)(O)[C@@H](O)C2=CO1 observed_measurement="41.3 µM"
